- ASSAY NAME: Toxicity liver stage against HepG2, at 10uM
- Format: cell-based
- Set-up: test concentration 10 uM, cell line HepG2-A16-CD81EGFP
- CONDITION DESCRIPTION: human, HepG2-A16-CD81EGFP cells; read-out: INHIBITION
PROPERTY: cytotoxicity at 10 µM (%)
Write it as a number; the unit % goes unstated.

Query: cytotoxicity at 10 µM for CCNc1ncc(C(=O)NC(c2ccccc2)c2ccco2)cn1 (stereo unspecified) ?
Reply: 5.94

Query: Need cytotoxicity at 10 µM of Cc1nn(C)c(C)c1Cc1nc(N(C)C)no1 , thanks.
Reply: 7.06

Query: # lookup: cytotoxicity at 10 µM of CC(C)c1nccn1C1CCCN(C(=O)c2cc(C(N)=O)cs2)C1 (stereo unspecified)
Reply: -2.61

Query: Bench note: what cytotoxicity at 10 µM did Cc1cccc(CN2CC3C[C@]3(NC(=O)c3cccc(F)c3)C2)n1 (stereo partly specified) show?
Reply: -151

Query: // cytotoxicity at 10 µM lookup, key: CN(Cc1noc(C2CC2)n1)CC1CCN(CCO)CC1
Reply: -3.96

Query: Item under review: CC(NC(=O)CCCOc1ccccc1)c1nnc2n1CCCCC2 (stereo unspecified) . Reported cytotoxicity at 10 µM?
Reply: -9.51

Query: // lookup cytotoxicity at 10 µM for Cc1ccc(C)c2c(O)cc(CN3CCC(=O)NCC3C)nc12 (stereo unspecified)
Reply: 2.11

Query: Given the entry CC(C)CN1C(=O)C2(CCN(Cc3ccoc3)C2)c2ccccc21 (stereo unspecified) , report its measured cytotoxicity at 10 µM.
Reply: 4.82

Query: So what's the measured cytotoxicity at 10 µM for this one? N#CC1COCCN1C(=O)c1cccc2cc[nH]c12 (stereo unspecified)
Reply: 7.1

Query: Please report the recorded cytotoxicity at 10 µM for CC(C)N1CC[C@@H]2OC[C@H](C(=O)Nc3cccnc3)C[C@@H]2C1 .
Reply: 15.7

Query: Which cytotoxicity at 10 µM reading was recorded for the molecule COCCn1c2c(ccc1=O)CCN(C(=O)Cc1cccs1)CC2 ?
Reply: 1.44

----------
- ASSAY NAME: Toxicity liver stage against HepG2, at 10uM
- Assay type: cell-based
- Parameters: test concentration 10 uM, cell line HepG2-A16-CD81EGFP
- CONDITION DESCRIPTION: human, HepG2-A16-CD81EGFP cells; read-out: INHIBITION
PROPERTY: cytotoxicity at 10 µM
The reply must contain the numeric value and, after it, the unit.

Query: GET /values?readout=cytotoxicity at 10 µM&item= CC(=O)NCC1CCN(C(=O)NCCc2ccc3c(c2)OCO3)CC1
Reply: -5.22%

Query: Any idea what its cytotoxicity at 10 µM is? The molecule is CC(c1ccccn1)N(C)Cc1cc2cc3c(cc2[nH]c1=O)OCO3 (stereo not given)
Reply: 11.7%

Query: Request the reported cytotoxicity at 10 µM associated with Cc1ccc(C)c(C(=O)N2CCOC(CCN(C)C)C2)c1 (stereo not given)
Reply: -0.63%

Query: May I ask what cytotoxicity at 10 µM has been recorded for Cc1ccc(CNc2ccn(CCC(N)=O)n2)c(Br)c1 ?
Reply: -1.65%

Query: Item under review: Cc1nc(CN2CCC3(CC2)CC(=O)N(C)c2ccccc23)cs1 . Reported cytotoxicity at 10 µM?
Reply: 0.0115%

Query: State the recorded cytotoxicity at 10 µM for this entry: CN(C)S(=O)(=O)NCc1cccnc1Oc1ccc(F)cc1F
Reply: 8.49%

Query: Request the reported cytotoxicity at 10 µM associated with O=C(NCCCN1CCOCC1)c1ccc(Cl)cc1Cl
Reply: -3.64%

Query: Item COc1cc(C(=O)Nc2c(C)noc2C)ccc1C has what recorded cytotoxicity at 10 µM?
Reply: -15%

Query: Recorded cytotoxicity at 10 µM of c1ccc(Cc2noc(-c3ccc(NCC4COCCO4)nc3)n2)cc1 (stereo not given) , please.
Reply: 6.42%

Query: I'd like to know its cytotoxicity at 10 µM. The molecule in question is Cc1cc(NC(=O)CO)nn1-c1ccc(Cl)cc1Cl
Reply: -142%

Query: For the molecule shown here, Cc1nn(C(C)C)c2cn(CC(=O)NC3CCSCC3)nc12 , give the reported cytotoxicity at 10 µM.
Reply: -2.72%

Query: Find the recorded cytotoxicity at 10 µM belonging to CCOCC(O)CNc1cncc(Br)c1 (stereo not given) and report it.
Reply: 4.21%

Query: Name the reported cytotoxicity at 10 µM value associated with the molecule Cn1ccc(C(=O)Nc2nnc(-c3ccccn3)[nH]2)cc1=O
Reply: 6.69%

Query: # query: cytotoxicity at 10 µM of entry O=C1NCCN(CC2CC2)C12CCN(Cc1ccco1)CC2
Reply: 2.55%

Query: Reported cytotoxicity at 10 µM for COc1cc(N2CCCC(c3nccn3Cc3cscn3)C2)nc(N)n1 (stereo not given) : what is it?
Reply: -4.66%

Query: cytotoxicity at 10 µM for CCNC(c1cccnc1)c1ccc(F)cc1F (stereo not given) ?
Reply: -2.34%

Query: What does the record list as cytotoxicity at 10 µM for COc1ncnc2c1CCN(c1cc(C(F)(F)F)ncn1)CC2 ?
Reply: -1.42%

Query: Please give the measured cytotoxicity at 10 µM for this molecule: CC(=O)N1CCC2(CCCN(C(=O)c3ccc(Cl)c(C(F)(F)F)c3)C2)C1 (stereo not given)
Reply: -81.8%

Query: What value of measured cytotoxicity at 10 µM is listed for CCc1ccc(C2COCCN2C(=O)Nc2cc(C)on2)o1 (stereo not given) ?
Reply: -4.31%

Query: Give its cytotoxicity at 10 µM value. Item: Cc1cnn(CC2CCCN2C(=O)Cc2c(C)nc(C)[nH]c2=O)c1 (stereo not given)
Reply: -3.63%

Query: Which cytotoxicity at 10 µM is reported for this molecule? O=C(C1CCC1)N1CCC2(CC1)CNCCO2
Reply: -4.29%

Query: Recorded cytotoxicity at 10 µM of CC(C)n1cc(-c2c(C#N)c(N)nc3c2COCC3)cn1 , please.
Reply: 17.2%

Query: If you can, please state the reported cytotoxicity at 10 µM value of COCc1noc(Cc2c(C)nn(C)c2C)n1 .
Reply: 7%

Query: What value of cytotoxicity at 10 µM has been reported for the following molecule? COc1ccc(CC(=O)NCC(O)c2sccc2C)cc1OC (stereo not given)
Reply: 11.4%

Query: Name the reported cytotoxicity at 10 µM value associated with the molecule NC(=O)CSc1ccccc1NC(=O)C1CCCC1
Reply: -135%

----------
- ASSAY NAME: Toxicity liver stage against HepG2, at 10uM
- Format: cell-based
- Parameters: test concentration 10 uM, cell line HepG2-A16-CD81EGFP
- CONDITION DESCRIPTION: human, HepG2-A16-CD81EGFP cells; read-out: INHIBITION
Please provide measured cytotoxicity at 10 µM for the entries that follow.
The response must be a number in % with no trailing unit.

Query: Look at this compound and give its reported cytotoxicity at 10 µM. CC(C)Oc1ncnc2c1CCN(Cc1ccoc1)CC2
Reply: 2.56

Query: Value lookup for cytotoxicity at 10 µM; key = CC(C)n1cc(-n2cc3nc(N4CCOCC4)[nH]cc-3c2=O)cn1
Reply: 4.48

Query: Can you look up the measured cytotoxicity at 10 µM of CN(Cc1cnn(C)c1)C(=O)C1COc2ccccc2C1 (centres undefined) for me?
Reply: 0.583

Query: I would be grateful if you could share the reported cytotoxicity at 10 µM for O=C(O)C(c1ccc2c(c1)OCO2)N1CCC(C(=O)N2CCCC2)CC1 (centres undefined) .
Reply: 4.22

Query: Name the recorded cytotoxicity at 10 µM for COc1ccc(OCCCN(C)C(=O)C2CCCN2C(N)=O)cc1 (centres undefined) .
Reply: 1.7

Query: // lookup cytotoxicity at 10 µM for COCc1nc(CN2CCOC(CNc3cccnn3)C2)cs1 (centres undefined)
Reply: -4.71

Query: Requested field: cytotoxicity at 10 µM. Item: Cn1ncc2c1NC(=O)CC2c1ccc(F)cc1 (centres undefined)
Reply: 4.63

Query: Looking for the measured cytotoxicity at 10 µM of COCc1cc(N(C)Cc2ccccn2)nc(C(C)(C)C)n1 , can you help?
Reply: 12.1

Query: Sample Cc1nc(C)n(CC(=O)N2CCCC(c3cc4ccccc4cn3)C2)n1 (centres undefined) — what was its cytotoxicity at 10 µM?
Reply: -22.1

Query: Name the reported cytotoxicity at 10 µM value associated with the compound COCCN1CCc2ncnc(NC3CC3)c2CC1
Reply: 5.62

Query: Reported cytotoxicity at 10 µM for Cc1nc(C)n(CC2CCCN2Cc2cccc3c2OCCO3)n1 (centres undefined) : what is it?
Reply: -3.33

Query: What value of cytotoxicity at 10 µM has been reported for the following compound? CCOc1ncccc1C(=O)N1CCCC(c2nccn2CCOC)C1 (centres undefined)
Reply: -9.12

Query: Find the recorded cytotoxicity at 10 µM belonging to COc1cccc(C(=O)N2CCN(C(=O)CCCn3ccnc3)CC2)c1 and report it.
Reply: 3.82

Query: # query: cytotoxicity at 10 µM of entry COc1cc(CCC(=O)N2CCC(c3cc4ncc(C)nc4[nH]3)C2)on1 (centres undefined)
Reply: 1.92

Query: Could you tell me which cytotoxicity at 10 µM is on file for CC[C@H](CO)NC(=O)c1coc(COc2cccc(F)c2F)n1 ?
Reply: 3.08

Query: Query (compound): CSc1ccc(OC(C)C(=O)Nc2cc(C)n[nH]2)cc1 (centres undefined) ; field requested: cytotoxicity at 10 µM
Reply: 8.64

Query: What value of cytotoxicity at 10 µM has been recorded for this entry: Cc1cc(C(=O)N2CCN(C(=O)CCC3CCCCC3)CC2)n(C)n1
Reply: -3.06

Query: What value of cytotoxicity at 10 µM has been reported for the following compound? CCCn1nccc1NC(=O)CN1CCCC1c1c(C)nn(C)c1C (centres undefined)
Reply: -2.7

Query: What does the record list as cytotoxicity at 10 µM for Cc1sc2c(C3CCCN(C)C3)nc(C)n2c1C (centres undefined) ?
Reply: -26.9

Query: I'd like to know its cytotoxicity at 10 µM. The compound in question is CCNC(=O)NC1CCN(c2ccc(S(=O)(=O)CC)cc2)CC1
Reply: 7.89

Query: So what's the measured cytotoxicity at 10 µM for this one? Cc1occc1C(=O)N1C[C@H](Oc2ccccn2)[C@H]2OCCC[C@H]21
Reply: -110

Query: Given the entry CN(C)Cc1ccnc(C2CCCN2Cc2ccncc2)n1 (centres undefined) , report its measured cytotoxicity at 10 µM.
Reply: 1.36

Query: Give the measured cytotoxicity at 10 µM of O=C(O)[C@@H]1CN(C(=O)CN2CCCCCC2)C[C@H]1c1ccccc1 .
Reply: 4.97

Query: Recorded cytotoxicity at 10 µM of COCCNC(=O)[C@H]1C[C@@H]2CCN(Cc3nccs3)C[C@H]2O1 , please.
Reply: -68.2
